Target: T1, SYNJ2BP, P57105
T1 sequence (P57105 8-110, limits assumed, looked up): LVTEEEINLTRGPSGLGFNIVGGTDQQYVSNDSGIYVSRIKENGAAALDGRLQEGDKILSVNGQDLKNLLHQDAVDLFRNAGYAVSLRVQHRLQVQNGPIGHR
Assay: holdup assay
Set-up: key: below the threshold = too weak to quantify, mostly under pKd 3.1 to 4
Conditions: plain residues with an end cap or a label only (N-terminal biotin on a linker: ado-ado)
Would you mind labelling by pKd? At or over 4 is met, under is not met.

Could you verify whether the entry NTALVESEDL [PALLS, Q8WX93] shows pKd of no less than 4?
not met

Could you verify whether the entry ADEMICITTL [CACNA1D, Q01668] shows pKd of no less than 4?
met

Could you verify whether the entry DSEEELPTRL [GRK6, P43250] shows pKd of no less than 4?
not met

Could you verify whether the entry PLATCDETSI [SEMA4F, O95754] shows pKd of no less than 4?
met

Could you verify whether the entry DYSNLRETDI [ADRA1D, P25100] shows pKd of no less than 4?
met

All values here come from paper PMC9482650.
